tested on: SNB-19 CNS; test: NCI tumour cell line growth inhibition, 48 h
For each entry below, report its TGI value.

Dear colleague, I am looking for the recorded TGI of the following compound: NC(N)=NS(=O)(=O)c1ccc(Nc2c3ccccc3nc3c(C(=O)Nc4ccc(S(N)(=O)=O)cc4)ccc(Cl)c23)cc1
> 100 µM

Dear colleague, I am looking for the recorded TGI of the following compound: Cc1ccc(-c2nc(N3CCCNCC3)c3oc(-c4ccccc4)nc3n2)cc1
3.45 µM

Dear colleague, I am looking for the recorded TGI of the following compound: S=c1nc(Cl)cc2[nH]c(Cl)cn12
> 100 µM

Dear colleague, I am looking for the recorded TGI of the following compound: COCn1c(C)c(C)c2c(=O)oc(N(C)C)nc21
> 100 µM

Dear colleague, I am looking for the recorded TGI of the following compound: CC(=O)O[C@H]1CCC2[C@@H]3CCC4Cc5nc6c(nc5C[C@]4(C)C3CC[C@@]21C)CC1CC[C@@H]2C(CC[C@@]3(C)C2CC[C@@H]3C(C)CCCC(C)C)[C@@]1(C)C6 (stereo not given in full)
> 100 µM

Dear colleague, I am looking for the recorded TGI of the following compound: C[C@]12CC[C@H](O)CC1=CC[C@@H]1[C@@H]2CC[C@]2(C)C(=N/O)/C(=C/c3ccc([N+](=O)[O-])cc3)C[C@@H]12
22.4 µM

Dear colleague, I am looking for the recorded TGI of the following compound: CN1CCN(CCCCN2c3ccccc3Sc3cc(N=[N+]=[N-])ccc32)CC1
10.8 µM

Dear colleague, I am looking for the recorded TGI of the following compound: O=c1[nH]cnc2c1CCCN2
> 100 µM

Dear colleague, I am looking for the recorded TGI of the following compound: NS(=O)(=O)c1ccc(Nc2c3ccccc3nc3c(C(=O)NCCO)cccc23)cc1
0.355 µM

Dear colleague, I am looking for the recorded TGI of the following compound: C[C@H]1[C@H]2[C@H]3CC[C@@H]4[C@@]5(C)C/C(=C/c6cccnc6)C(=O)C(C)(C)[C@@H]5CC[C@@]4(C)[C@]3(C)CC[C@]23CO[C@]1(C)[C@@H](C(=O)/C=C\c1cccnc1)C3
1.76 µM

Dear colleague, I am looking for the recorded TGI of the following compound: COC(=O)/C=C\C(C#N)(C#N)N=Cc1ccc(Br)s1
21.9 µM

Dear colleague, I am looking for the recorded TGI of the following compound: COc1ccc(OC(C(=O)O)c2ccccc2)c2c1CCCC2=O (stereo not given)
> 100 µM

Dear colleague, I am looking for the recorded TGI of the following compound: O=[N+]([O-])c1c(C=Nc2ccccc2)oc(-c2ccc3c(c2)OCO3)c1-c1ccc2c(c1)OCO2
> 100 µM

Dear colleague, I am looking for the recorded TGI of the following compound: O=c1c2c3c(sc2nc(N/N=C/c2ccc(Br)cc2)n1Cc1ccccc1)CCCC3
> 100 µM

Dear colleague, I am looking for the recorded TGI of the following compound: COc1ccc(/C(CC2OC(=O)c3ccccc32)=N\NC(=O)C[N+](C)(C)C)cc1 (stereo not given)
96.5 µM

Dear colleague, I am looking for the recorded TGI of the following compound: COc1cccc2c1c(C1=C(c3cn(C)c4ccccc34)C(=O)NC1=O)cn2C
> 25 µM

Dear colleague, I am looking for the recorded TGI of the following compound: CCOC(=O)C(NCc1cccc(C(F)(F)F)c1)(NC(=O)CC)C(F)(F)F (stereo not given)
> 100 µM

Dear colleague, I am looking for the recorded TGI of the following compound: O=C(Nc1nc2ccc(F)cc2s1)c1cccnc1Nc1ccc(Cl)cc1
> 100 µM

Dear colleague, I am looking for the recorded TGI of the following compound: c1ccc(C[N+]23CN4CN(CN(C4)C2)C3)cc1
71.2 µM

Dear colleague, I am looking for the recorded TGI of the following compound: CCCCCCc1nc2nc(Cl)c(Cl)nc2[nH]1
> 100 µM

Dear colleague, I am looking for the recorded TGI of the following compound: CC(=O)C1(N=Nc2ccc(S(N)(=O)=O)cc2)CCOC1=O (stereo not given)
> 100 µM

Dear colleague, I am looking for the recorded TGI of the following compound: CC(=O)[C@@]1(O)[C@H](C)C[C@H]2[C@@H]3C=C(C)C4=Cc5c(cnn5-c5ccccc5)C[C@]4(C)[C@H]3[C@@H](O)C[C@@]21C
14.2 µM

Dear colleague, I am looking for the recorded TGI of the following compound: CCCCN(CCCC)CCCn1c(=O)c2c3ccccc3n(C)c2n2nnc(-c3ccccc3)c12
> 100 µM

Dear colleague, I am looking for the recorded TGI of the following compound: Cl/C(=C\C=Nc1ccc(I)cc1)c1ccc2ccccc2c1
39.7 µM

Dear colleague, I am looking for the recorded TGI of the following compound: O=c1oc(=O)c2oc3ccccc3oc1=2
> 100 µM

Dear colleague, I am looking for the recorded TGI of the following compound: Clc1ccc(-c2ccc(-c3nn4c(CNc5ccccc5)nnc4s3)o2)c(Cl)c1
> 100 µM

Dear colleague, I am looking for the recorded TGI of the following compound: CC(=O)OCCOc1cc2c([nH]c3ccccc32)c(C)c2cccc1-2
8.97 µM

Dear colleague, I am looking for the recorded TGI of the following compound: CCCCCCCCCCCCCCCCOCC(CCl)OP(=O)(O)OP(=O)(O)OCC1OC(n2ccc(N)nc2=O)C(O)C1O (stereo not given)
> 100 µM

Dear colleague, I am looking for the recorded TGI of the following compound: COC1CC(NC(=O)C(F)(F)F)C(OC(C)=O)C(C)O1 (stereo not given)
> 100 µM

Dear colleague, I am looking for the recorded TGI of the following compound: O=C1c2ccccc2-c2c1c1c(O)cccc1n2-c1ccccc1
> 100 µM

The origin of these recorded values is PubChem BioAssay (NCI).
